Target: KRAS G12D (Homo sapiens, UniProt P01116+P62937, G12D)
Sequence (P01116 1-169 isoform P01116-2 G12D limits assumed): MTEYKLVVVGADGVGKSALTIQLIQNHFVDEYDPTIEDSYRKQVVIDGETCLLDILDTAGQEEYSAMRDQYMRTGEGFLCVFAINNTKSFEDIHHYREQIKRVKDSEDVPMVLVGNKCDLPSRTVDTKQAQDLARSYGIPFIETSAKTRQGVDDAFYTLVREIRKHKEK
Sequence (P62937 whole entry): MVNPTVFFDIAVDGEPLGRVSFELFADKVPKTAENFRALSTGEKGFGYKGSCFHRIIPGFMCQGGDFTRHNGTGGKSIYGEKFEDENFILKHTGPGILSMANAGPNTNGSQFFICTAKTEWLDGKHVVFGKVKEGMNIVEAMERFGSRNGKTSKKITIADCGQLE
Assay: Ras-Raf disruption / FRET / MOA assay (BRAF RBD)
Format: biochemical
Settings: Ras-Raf disruption, with Cyclophilin A; read-out: KRAS G12D FRET data IC50
pIC50: −log10 of the molar value.
quantity_name: pIC50

molecule	quantity_name	readout_value
CCn1c(-c2cccnc2[C@H](C)OC)c2c3cc(ccc31)-c1cc(O)cc(c1)C[C@H](NC(=O)[C@H](C(C)C)N(C)C(=O)[C@H]1CCN(C(=O)C3(C)CO3)C1)C(=O)N1CCC[C@H](N1)C(=O)OCC(C)(C)C2 (stereo partly drawn) [Example 332]	pIC50	6.00 to 7.00
CCn1c(-c2cccnc2[C@H](C)OC)c2c3cc(ccc31)-c1cc(O)cc(c1)C[C@H](NC(=O)[C@H](C(C)C)N(C)C(=O)[C@@H]1CN1)C(=O)N1CCC[C@H](N1)C(=O)OCC(C)(C)C2 [Example 100]	pIC50	6.00 to 7.00
CCn1c(-c2cccnc2[C@H](C)OC)c2c3cc(ccc31)-c1cccc(c1)C[C@H](NC(=O)[C@H](C1CCCC1)N1CC[C@]3(CCN(C(=O)[C@@H]4N[C@@H]4C4CC4)C3)C1=O)C(=O)N1CCC[C@H](N1)C(=O)OCC(C)(C)C2 [Example 313]	pIC50	6.00 to 7.00
CCn1c(-c2cccnc2[C@H](C)OC)c2c3cc(ccc31)-c1cc(O)cc(c1)C[C@H](NC(=O)[C@H](C(C)C)N(C)C(=O)C1CCN(S(=O)(=O)[C@H]3CN3C)CC1)C(=O)N1CCC[C@H](N1)C(=O)OCC(C)(C)C2 (single isomer, unassigned) [Example 108]	pIC50	5.00 to 6.00
CCn1c(-c2cccnc2[C@H](C)OC)c2c3cc(ccc31)-c1csc(n1)C[C@H](NC(=O)[C@H](C(C)C)N(C)C(=O)N(C)CCN(C)C(=O)[C@H]1CN1)C(=O)N1CCC[C@H](N1)C(=O)OCC(C)(C)C2 (atropisomer, axis not shown) [Example 216]	pIC50	6.00 to 7.00
CCn1c(-c2cccnc2[C@H](C)OC)c2c3cc(ccc31)-c1csc(n1)C[C@H](NC(=O)[C@H](C(C)C)N(C)C(=O)N(C)CCN(C)C(=O)[C@@H]1CN1)C(=O)N1CCC[C@H](N1)C(=O)OCC(C)(C)C2 (atropisomer, axis not shown) [Example 217]	pIC50	6.00 to 7.00
CCn1c(-c2cccnc2[C@H](C)OC)c2c3cc(ccc31)-c1csc(n1)C[C@H](NC(=O)[C@H](C(C)C)N(C)C(=O)N(C)CC1CN(C(=O)[C@@H]3CN3)C1)C(=O)N1CCC[C@H](N1)C(=O)OCC(C)(C)C2 (atropisomer, axis not shown) [Example 294]	pIC50	6.00 to 7.00
CCn1c(-c2cccnc2[C@H](C)OC)c2c3cc(ccc31)-c1cccc(c1)C[C@H](NC(=O)[C@H](C(C)C)N(C)C(=O)[C@H]1CC[C@H](N=C=NC(C)(C)C)C1)C(=O)N1CCC[C@H](N1)C(=O)OCC(C)(C)C2 [Example 125]	pIC50	5.00 to 6.00
CCn1c(-c2cccnc2[C@H](C)OC)c2c3cc(ccc31)-c1cc(O)cc(c1)C[C@H](NC(=O)[C@H](C(C)C)N(C)C(=O)N(C)CCN(C)C(=O)[C@H]1CN1)C(=O)N1CCC[C@H](N1)C(=O)OCC(C)(C)C2 (atropisomer, axis not shown) [Example 204]	pIC50	6.00 to 7.00
CCn1c(-c2cccnc2[C@H](C)OC)c2c3cc(ccc31)-c1cc(O)cc(c1)C[C@H](NC(=O)[C@H](C(C)C)N(C)C(=O)[C@@H]1CCCN(C(=O)[C@@H]3CN3)C1)C(=O)N1CCC[C@H](N1)C(=O)OCC(C)(C)C2 [Example 238]	pIC50	6.00 to 7.00
CCn1c(-c2cccnc2[C@H](C)OC)c2c3cc(ccc31)-c1csc(n1)C[C@H](NC(=O)[C@H](C(C)C)N(C)C(=O)N1CCN(C(=O)[C@@H]3CN3)C[C@H]1C)C(=O)N1CCC[C@H](N1)C(=O)OCC(C)(C)C2 [Example 302]	pIC50	6.00 to 7.00
CCn1c(-c2cnccc2COC)c2c3cc(ccc31)-c1cc(O)cc(c1)C[C@H](NC(=O)[C@H](C(C)C)N(C)C(=O)c1ccc(NC(=O)[C@H]3CN3)cn1)C(=O)N1CCC[C@H](N1)C(=O)OCC(C)(C)C2 [47 A and B]	pIC50	5.00 to 6.00
CCn1c(-c2cccnc2[C@H](C)OC)c2c3cc(ccc31)-c1cc(O)cc(c1)C[C@H](NC(=O)[C@H](C(C)C)N(C)C(=O)N1CC[C@@H](N(C)C(=O)[C@@H]3CN3)C1)C(=O)N1CCC[C@H](N1)C(=O)OCC(C)(C)C2 (atropisomer, axis not shown) [Example 253]	pIC50	6.00 to 7.00
CCn1c(-c2cccnc2[C@H](C)OC)c2c3cc(ccc31)-c1csc(n1)C[C@H](NC(=O)[C@H](C(C)C)N(C)C(=O)N(C)[C@H]1CCN(C(=O)[C@@H]3CN3)C1)C(=O)N1CCC[C@H](N1)C(=O)OCC(C)(C)C2 (atropisomer, axis not shown) [Example 310]	pIC50	5.00 to 6.00
CCn1c(-c2cccnc2[C@H](C)OC)c2c3cc(ccc31)-c1csc(n1)C[C@H](NC(=O)[C@H](C(C)C)N(C)C(=O)N1CCN(C(=O)[C@@H]3CN3)[C@@H](C)C1)C(=O)N1CCC[C@H](N1)C(=O)OCC(C)(C)C2 [Example 298]	pIC50	6.00 to 7.00

These entries and their values trace back to patent US20230233569A1.
